protocol text: Compound 1 PK dosed Days 1-5 with topotecan
Format: in vivo, human
test settings: human, plasma, intravenous, 200 mg/m^2 with Topotecan […]^2 (Cohort 1), Day 4, Geometric Mean; read-out: Cmax
recorded metric: Cmax

Specify Cmax for CN1CCN(c2ccc(Nc3ncc4cc5n(c4n3)C3(CCCCC3)CNC5=O)nc2)CC1 and stop.
993 ng/mL

====

protocol text: Single escalating dose IV infusion pharmacokinetics in healthy volunteers (noncompartmental)
Type: in vivo, human
test settings: both, human, plasma, intravenous, […]2, Cohort 6, […]^2, 0-[…] data; noncompartmental; subjects 1-6, Mean, Min, Median, Max, Geometric Mean; read-out: Tmax
recorded metric: Tmax (min)
Number only, in min; omit the unit.

Specify Tmax for CN1CCN(c2ccc(Nc3ncc4cc5n(c4n3)C3(CCCCC3)CNC5=O)nc2)CC1 [Compound 1] and stop.
30

====

protocol text: Compound 1 PK dosed Days 1-3 with etoposide and carboplatin
Format: in vivo, human
test settings: human, plasma, intravenous, 200 mg/m2, 200 mg/m^2 with Etoposide and Carboplatin, Day 3, individual subjects; read-out: t½ (converted)
recorded metric: half-life (h)
Number only, in h; omit the unit.

Specify half-life for CN1CCN(c2ccc(Nc3ncc4cc5n(c4n3)C3(CCCCC3)CNC5=O)nc2)CC1 [Compound 1] and stop.
9.27

====

protocol text: Single escalating dose IV infusion pharmacokinetics in healthy volunteers (noncompartmental)
Type: in vivo, human
test settings: both sexes, human, plasma, iv, 24 mg/m2, Cohort 3, 24 mg/m^2 IV; range over subjects; read-out: Half-lives range
recorded metric: half-life

Specify half-life for CN1CCN(c2ccc(Nc3ncc4cc5n(c4n3)C3(CCCCC3)CNC5=O)nc2)CC1 [Compound 1] and stop.
7.85 to 13.1 h

====

protocol text: Single escalating dose IV infusion pharmacokinetics in healthy volunteers (noncompartmental)
Format: in vivo, human
test settings: both sexes, human, plasma, iv, 96 mg/m^2, Cohort 5, 96 mg/m^2, 30-minute IV infusion; noncompartmental; subjects 1-6, Mean, Min, Median, Max, Geometric Mean; read-out: AUCinf
recorded metric: AUC(0-inf) (ng·h/mL)
Number only, in ng·h/mL; omit the unit.

Specify AUC(0-inf) for CN1CCN(c2ccc(Nc3ncc4cc5n(c4n3)C3(CCCCC3)CNC5=O)nc2)CC1 and stop.
1590

====

protocol text: 14-day oral gavage toxicokinetic study in rats
Type: in vivo
test settings: female, rat, plasma, po, 30 mg/kg, Individual Compound 1 Plasma Concentration, rats, daily oral 30 mg/kg, Day 1, Female, 12 h
recorded metric: concentration at 12 h (ng/mL)
Number only, in ng/mL; omit the unit.

Specify concentration at 12 h for CN1CCN(c2ccc(Nc3ncc4cc5n(c4n3)C3(CCCCC3)CNC5=O)nc2)CC1 and stop.
2000

====

protocol text: 14-day oral gavage toxicokinetic study in rats
Format: in vivo
test settings: male, rat, plasma, po, 5 mg/kg, oral 5 mg/kg, Study Day 1, Male; read-out: t½ (converted)
recorded metric: half-life (h)
Number only, in h; omit the unit.

Specify half-life for CN1CCN(c2ccc(Nc3ncc4cc5n(c4n3)C3(CCCCC3)CNC5=O)nc2)CC1 [Compound 1] and stop.
4.52

====

protocol text: 14-day oral gavage toxicokinetic study in rats
Assay type: in vivo
test settings: male, rat, plasma, po, 5 mg/kg, Individual Compound 1 Plasma Concentration, rats, daily oral 5 mg/kg, Day 14, Male, 0.5 h
recorded metric: concentration at 0.5 h (ng/mL)
Number only, in ng/mL; omit the unit.

Specify concentration at 0.5 h for CN1CCN(c2ccc(Nc3ncc4cc5n(c4n3)C3(CCCCC3)CNC5=O)nc2)CC1 and stop.
205

====

protocol text: Single escalating dose IV infusion pharmacokinetics in healthy volunteers (noncompartmental)
Assay type: in vivo, human
test settings: both sexes, human, plasma, iv, 6 mg/m2, Cohort 1, 6 mg/m^2 IV; r6-8=Subjects 1-3,r10=Mean,r12=Min,r13=Median,r14=Max,r16=Geometric Mean; read-out: AUCinf
recorded metric: AUC(0-inf) (ng·h/mL)
Number only, in ng·h/mL; omit the unit.

Specify AUC(0-inf) for CN1CCN(c2ccc(Nc3ncc4cc5n(c4n3)C3(CCCCC3)CNC5=O)nc2)CC1 and stop.
67.7

====

protocol text: Single escalating dose IV infusion pharmacokinetics in healthy volunteers (noncompartmental)
Assay type: in vivo, human
test settings: both sexes, human, plasma, iv, 6 mg/m2, Cohort 1, 6 mg/m^2 IV; r6-8=Subjects 1-3,r10=Mean,r12=Min,r13=Median,r14=Max,r16=Geometric Mean
recorded metric: MRT inf (h)
Number only, in h; omit the unit.

Specify MRT inf for CN1CCN(c2ccc(Nc3ncc4cc5n(c4n3)C3(CCCCC3)CNC5=O)nc2)CC1 and stop.
4.18

====

protocol text: Compound 1 PK dosed Days 1-3 with etoposide and carboplatin
Format: in vivo, human
test settings: human, plasma, intravenous, 200 mg/m2, 200 mg/m^2 with etoposide and carboplatin; Day 3; range; read-out: Half-lives range
recorded metric: half-life

Specify half-life for CN1CCN(c2ccc(Nc3ncc4cc5n(c4n3)C3(CCCCC3)CNC5=O)nc2)CC1 [Compound 1] and stop.
6.99 to 11 h

====

protocol text: 14-day oral gavage toxicokinetic study in rats
Assay type: in vivo
test settings: male, rat, plasma, po, 30 mg/kg, Individual Compound 1 Plasma Concentration, rats, daily oral 30 mg/kg, Day 1, Male, 0.5 h
recorded metric: concentration at 0.5 h (ng/mL)
Number only, in ng/mL; omit the unit.

Specify concentration at 0.5 h for CN1CCN(c2ccc(Nc3ncc4cc5n(c4n3)C3(CCCCC3)CNC5=O)nc2)CC1 [Compound 1] and stop.
1450

====

protocol text: Compound 1 PK dosed Days 1-5 with topotecan
Assay type: in vivo, human
test settings: human, plasma, intravenous, 200 mg/m^2 with Topotecan 0.75 mg/m^2 (Cohort 3), Day 1, Geo. Mean; read-out: Cmax
recorded metric: Cmax

Specify Cmax for CN1CCN(c2ccc(Nc3ncc4cc5n(c4n3)C3(CCCCC3)CNC5=O)nc2)CC1 [Compound 1] and stop.
1060 ng/mL

====

protocol text: 14-day oral gavage toxicokinetic study in rats
Format: in vivo
test settings: male, rat, plasma, po, 30 mg/kg, Mean Compound 1 Plasma Concentration, rats, oral 30 mg/kg, Day 14, 8 h, Male
recorded metric: concentration at 8 h

Specify concentration at 8 h for CN1CCN(c2ccc(Nc3ncc4cc5n(c4n3)C3(CCCCC3)CNC5=O)nc2)CC1 and stop.
1880 ng/mL

====

protocol text: 14-day oral gavage toxicokinetic study in rats
Assay type: in vivo
test settings: female, rat, plasma, po, 2 mg/kg, Mean Compound 1 Plasma Concentration, rats, oral 2 mg/kg, Day 14, 24 h, Female
recorded metric: concentration at 24 h (ng/mL)
Number only, in ng/mL; omit the unit.

Specify concentration at 24 h for CN1CCN(c2ccc(Nc3ncc4cc5n(c4n3)C3(CCCCC3)CNC5=O)nc2)CC1 and stop.
10.8
